Target: PABPC1L (Homo sapiens)
Sequence (Q4VXU2 1-390): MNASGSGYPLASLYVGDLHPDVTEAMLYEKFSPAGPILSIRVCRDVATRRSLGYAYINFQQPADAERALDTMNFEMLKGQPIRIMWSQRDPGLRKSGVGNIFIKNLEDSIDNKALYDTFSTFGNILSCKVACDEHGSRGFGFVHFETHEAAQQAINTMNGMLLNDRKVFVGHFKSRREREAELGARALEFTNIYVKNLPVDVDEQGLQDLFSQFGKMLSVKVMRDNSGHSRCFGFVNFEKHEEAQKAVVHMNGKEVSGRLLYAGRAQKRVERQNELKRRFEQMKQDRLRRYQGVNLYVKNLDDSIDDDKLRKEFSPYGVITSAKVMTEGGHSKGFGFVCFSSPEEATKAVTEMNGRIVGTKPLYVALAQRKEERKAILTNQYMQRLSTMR
Assay: protein domain microarray probed with biotinylated miRNA; Domain array: 20 mM Tris-HCl pH 7.4, 200 mM KCl, 0.2 mM EDTA, 0.05% NP40, 2 ug/ul heparin, overnight 4 C. ORF array: PBS pH 7.0 with RNase inhibitor, 100 ng RNA; high values mean tight binding
Details: ssRNA
RECORDED ENDPOINT: binding signal (fluorescence intensity)
Answers are plain numbers, in fluorescence intensity.

Reference set, count: 3
- RESIDUES: "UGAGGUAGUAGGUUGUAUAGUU"
  SYSTEM: "PABPC1L (Homo sapiens)"
  binding signal / fluorescence intensity: 626
- RESIDUES: "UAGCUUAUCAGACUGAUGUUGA"
  SYSTEM: "PABPC1L (Homo sapiens)"
  binding signal / fluorescence intensity: 126
- RESIDUES: "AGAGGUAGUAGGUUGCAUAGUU"
  SYSTEM: "PABPC1L (Homo sapiens)"
  binding signal / fluorescence intensity: 1740

In plain terms, `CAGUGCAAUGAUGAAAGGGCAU` has a documented binding signal of 991

Ref: paper PMC11574364
